PROCEDURE_TEXT: enzyme activity assay at 23° C. with purified enzyme
Assay type: biochemical
TEST_CONDITIONS: wild-type set at 100%
Measured maximum activity as a percentage of the wild-type enzyme's activity, Fenoxaprop by item
Answer format: numeric, % implied, no suffix.

# count of solved cases: 4
MOLECULE | OBS_VALUE
MON-HT3: engineered oxygenase protein, amino acid sequence SEQ ID NO:22 (protein) MHAALSPLSQRFERIAVQPLTGVLGAEITGVDLREPLDDSTWNEILDAFHTYQVIYFPGQAITNEQHIAFSRRFGPVDPVPLLKSIEGYPEVQMIRREANESGRVIGDDWHTDSTFLDAPPAAVVMYAKEVPPYGGDTLFASMYTAWETLSPTMQATIEGLNVVHSATRVFGSLYQAQNRRFSNTSVKVMDVDAGDRETVHPLVVTHPETGRKGLYVNQVYCQRIEGMSEKESEPLLSFLFAHATKPEFTCRVRWQEGQVLVWDNLCTQHFAVPDYAGKFRYLTRTTVGGVRPAR | 83
MON-HT4: engineered oxygenase protein, amino acid sequence SEQ ID NO:25 (protein) MHAALTPLTNKYRFIDVQPLTGVLGAEITGVDLREPLDDSTWNEILDAFHTYQVIYFPGQAITNEQHIAFSRRFGPVDPVPLLKSIEGYPEVQMIRREANESGRVIGDDWHTDSTFLDAPPAAVVMYAREVPPYGGDTGFLSMYTAWETLSPTMQATIEGLNVVHSATRVFGSLYQAQNRRYSNTSVKVMDVDAGDRETVHPLVVSHPVTGRRALYCNQVYCQRIEGMTDAESKSLLQFLYEHATKFDFTCRVRWKKDQVLVWDNLCTMHRAVPDYAGKFRYLTRTTVAGDKPSR | 53
MON-HT5: engineered oxygenase protein, amino acid sequence SEQ ID NO:28 (protein) MHAALTPLTNKYRFIDVQPLTGVLGAEITGVDLREPLDDSTWNEILDAFHTYQVIYFPGQAITNEQHIAFSRRFGPVDPVPLLKSIEGYPEVQMIRREANESGRVIGDDWHTDSTFLDAPPAAVVMRAIEVPEYGGDTGFLSMYSAWETLSPTMQATIEGLNVVHSATKVFGSLYQATNWRFSNTSVKVMDVDAGDRETVHPLVVTHPVTGRRALYCNQVYCQKIQGMTDAESKSLLQFLYEHATKFDFTCRVRWKKDQVLVWDNLCTMHRAVPDYAGKFRYLTRTTVAGDKPSR | 92
MON-HT55: engineered oxygenase protein, amino acid sequence SEQ ID NO:11 (protein) MHAALSPLSQRFERIAVQPLTGVLGAEITGVDLREPLDDSTWNEILDAFHTYQVIYFPGQAITNEQHIAFSRRFGPVDPVPLLKSIEGYPEVQMIRREANESGRVIGENWHTDSTFLDAPPAAVVMYAKEIPPYGGDTLFTSMYTAWETLSPTMQATIEGLNVVHSATRVFGSLYQAQNRRFSNTSVKVMDVDAGDRETVHPLVVTHPETGRKGLYVNQVYCQRIEGMSEKESEPLLSFLFAHATKPEFTCRVRWQEGDVLVWDNLCTQHYAVPDYAGKFRYLTRTTVGGVRPAR | 34

Could you now look at the following molecule, please?
Entry MON-HT9: engineered oxygenase protein, amino acid sequence SEQ ID NO:40 (protein) MHAALTPLTNKYRFIDVQPLTGVLGAEITGVDLREPLDDSTWNEILDAFHTYQVIYFPAQQITNEQHISFSRRFGPVDPVPLLKSIEGYPEVQMIRREANESGRILGDDWHTDSTFLDAPPAAVVMRAIEVPEYGGDTGFLSMYSAWDTLSDTMKATIEGLNVVHSATRVFGSLYQAQNWRFSNTSVKVMDVDAGDRETVHPLVVSHPVTGRRALYCNQVYCQRIEGMTDAESKCLLQFLYEHATKFDFTCRVRWKKDQVLVWDNLCTMHRAVPDYAGKFRYLTRTTVAGDRPAR ; maximum activity as a percentage of the wild-type enzyme's activity, Fenoxaprop = 67
